Target Of Assay: T1, human calcitonin receptor (human, UniProt P30988 25-474)
T1 sequence (looked up): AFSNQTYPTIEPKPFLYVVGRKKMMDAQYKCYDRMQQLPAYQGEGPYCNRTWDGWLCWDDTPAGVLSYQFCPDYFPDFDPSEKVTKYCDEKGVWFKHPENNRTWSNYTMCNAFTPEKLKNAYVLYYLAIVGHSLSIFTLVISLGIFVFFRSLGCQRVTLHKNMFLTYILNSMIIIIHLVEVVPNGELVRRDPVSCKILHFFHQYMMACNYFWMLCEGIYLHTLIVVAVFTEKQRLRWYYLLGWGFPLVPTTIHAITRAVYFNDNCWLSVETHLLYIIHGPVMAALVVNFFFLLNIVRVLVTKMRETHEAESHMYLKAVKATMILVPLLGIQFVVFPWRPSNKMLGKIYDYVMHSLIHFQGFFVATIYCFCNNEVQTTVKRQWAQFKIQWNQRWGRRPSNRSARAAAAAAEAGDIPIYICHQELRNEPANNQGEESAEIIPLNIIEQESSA
Test Name: cell-based or functional assay
Numbered stars: 1 amine (or outer) side, 2 acyl side, 3 side chain; on linkers, the order of the positions; unused ones are H or OH. Bridge positions count the residues as written; N and C are the ends. Side chains are listed from the residue outwards. Ends that are not written are not given here. * marks the point of attachment. C20 diacid = O=C(O)CCCCCCCCCCCCCCCCCCC(=O)*; γGlu = O=C(O)[C@H](CCC(=O)[*:2])N[*:1]
Quantity Measured: hCTR funct. EC50 (pM)
Give your result in pM as a bare value.

Worked cases, answers included:
K([γGlu-γGlu-C20 diacid])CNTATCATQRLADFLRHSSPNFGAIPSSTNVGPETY-NH2 (disulfide 2-7, synthetic peptide amide)
843
K([γGlu-γGlu-C20 diacid])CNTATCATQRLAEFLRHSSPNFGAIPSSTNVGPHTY-NH2 (disulfide 2-7 (inferred), synthetic peptide amide)
2830
K([γGlu-γGlu-C20 diacid])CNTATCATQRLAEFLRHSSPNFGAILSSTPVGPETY-NH2 (disulfide 2-7, synthetic peptide amide)
1280

INPUT: Read the entry K([γGlu-γGlu-C20 diacid])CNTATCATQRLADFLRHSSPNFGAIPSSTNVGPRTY-NH2 (disulfide 2-7, synthetic peptide amide; also called compound 130) and write its reported hCTR funct. EC50 (pM).
OUTPUT: 7280

INPUT: Read the entry K([γGlu-C20 diacid])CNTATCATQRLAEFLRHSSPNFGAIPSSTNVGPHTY-NH2 (disulfide 2-7, synthetic peptide amide) and write its reported hCTR funct. EC50 (pM).
OUTPUT: 1450
